Test system: COLO858
Test: relative viability (cell count relative to DMSO-treated control) (fraction of DMSO control); higher = more viable cells / less drug effect
Conditions: 24 h; 3.16 µM
assay.endpoint: relative viability
Enter the number alone.

Q. Give a short answer stating reported relative viability for Cc1ccc(NC(=O)c2cccc(C(C)(C)C#N)c2)cc1Nc1ccc2ncn(C)c(=O)c2c1 [AZ628] .
A. 0.816

Q. Give a short answer stating reported relative viability for Cn1cnc2c(F)c(Nc3ccc(Br)cc3Cl)c(C(=O)NOCCO)cc21 [Selumetinib] .
A. 0.856

Q. Give a short answer stating reported relative viability for CCCS(=O)(=O)Nc1ccc(F)c(C(=O)c2c[nH]c3ncc(Cl)cc23)c1F [PLX4720] .
A. 0.808

Q. Give a short answer stating reported relative viability for CCCS(=O)(=O)Nc1ccc(F)c(C(=O)c2c[nH]c3ncc(-c4ccc(Cl)cc4)cc23)c1F [Vemurafenib] .
A. 0.703

Q. Give a short answer stating reported relative viability for CN(C)CCOc1ccc(-c2nc(-c3ccncc3)c(-c3ccc4c(c3)CC/C4=N\O)[nH]2)cc1 .
A. 0.811

###

Give measured relative viability for each item. Keep answers brief.
Tested on: LOXIMVI
Test: relative viability (cell count relative to DMSO-treated control) (fraction of DMSO control); higher = more viable cells / less drug effect
Conditions: 24 h; 1 µM
Enter the number alone.

Q. Give a short answer stating reported relative viability for CCCS(=O)(=O)Nc1ccc(F)c(C(=O)c2c[nH]c3ncc(-c4ccc(Cl)cc4)cc23)c1F [Vemurafenib] .
A. 0.95

Q. Give a short answer stating reported relative viability for CN(C)CCOc1ccc(-c2nc(-c3ccncc3)c(-c3ccc4c(c3)CC/C4=N\O)[nH]2)cc1 .
A. 0.987

Q. Give a short answer stating reported relative viability for Cn1cnc2c(F)c(Nc3ccc(Br)cc3Cl)c(C(=O)NOCCO)cc21 [Selumetinib] .
A. 1

Q. Give a short answer stating reported relative viability for CCCS(=O)(=O)Nc1ccc(F)c(C(=O)c2c[nH]c3ncc(Cl)cc23)c1F [PLX4720] .
A. 1.04

Q. Give a short answer stating reported relative viability for Cc1ccc(NC(=O)c2cccc(C(C)(C)C#N)c2)cc1Nc1ccc2ncn(C)c(=O)c2c1 [AZ628] .
A. 0.862

###

Tested on: MZ7MEL
Test: relative viability (cell count relative to DMSO-treated control) (fraction of DMSO control); higher = more viable cells / less drug effect
Details: 72 h; 3.16 µM
Give measured relative viability for each item. Keep answers brief.
Enter the number alone.

Q. Provide MZ7MEL relative viability reading for CCCS(=O)(=O)Nc1ccc(F)c(C(=O)c2c[nH]c3ncc(-c4ccc(Cl)cc4)cc23)c1F [Vemurafenib] .
A. 0.349

Q. Provide MZ7MEL relative viability reading for Cn1cnc2c(F)c(Nc3ccc(Br)cc3Cl)c(C(=O)NOCCO)cc21 [Selumetinib] .
A. 0.31

Q. Provide MZ7MEL relative viability reading for CCCS(=O)(=O)Nc1ccc(F)c(C(=O)c2c[nH]c3ncc(Cl)cc23)c1F [PLX4720] .
A. 0.329

Q. Provide MZ7MEL relative viability reading for Cc1ccc(NC(=O)c2cccc(C(C)(C)C#N)c2)cc1Nc1ccc2ncn(C)c(=O)c2c1 [AZ628] .
A. 0.327

Q. Provide MZ7MEL relative viability reading for CN(C)CCOc1ccc(-c2nc(-c3ccncc3)c(-c3ccc4c(c3)CC/C4=N\O)[nH]2)cc1 .
A. 0.387

Each recorded value in this set is attributed to the supplement of paper PMC4380931.
